Measured pIC50 accompanies every entry in the list below.
tested on: HCV NS5A protein in 9-13 replicon cells; experiment: Replicon quantitative Western blot assay (HEPC_REPLICON-ICWESTERN); type: cell-based; conditions: Hepatitis C virus; Table 14; read-out: HEPC_REPLICON-ICWESTERN Result Value
pIC50: −log10 of the molar value.

compound: CC(C)(C)OC(=O)N1CCN(c2ccc(CCCN(C(=O)C(Cl)Cl)c3ccnc(-c4cc(-c5c(Cl)cccc5Cl)no4)c3)cc2)CC1
pIC50: < 4.70
--
compound: O=C(C(Cl)Cl)N(Cc1ccc(OCCN2CCOCC2)cc1)c1ccnc(-c2cc(-c3c(Cl)cccc3Cl)no2)c1
pIC50: > 6.00
--
compound: O=C(C(Cl)Cl)N(CCN1CCOCC1)c1ccnc(-c2cc(-c3c(Cl)cccc3Cl)no2)c1
pIC50: < 4.70
--
compound: O=C(CCN(C(=O)C(Cl)Cl)c1ccnc(-c2cc(-c3c(Cl)cccc3Cl)no2)c1)C1CCCN1 (stereo not shown)
pIC50: > 6.00
--
compound: CCN1CCN(c2ccc(CN(C(=O)C(Cl)Cl)c3ccnc(-c4cc(-c5c(Cl)cccc5Cl)no4)c3)cc2)CC1
pIC50: > 6.00
--
compound: CCCNC(=O)Oc1c(C)cc(CN(C(=O)C(Cl)Cl)c2ccnc(-c3cc(-c4c(Cl)cccc4Cl)no3)c2)cc1C
pIC50: 4.70 to 6.00
--
compound: O=C(C(Cl)Cl)N(CCCc1ccc(CP(=O)(O)O)cc1)c1ccnc(-c2cc(-c3c(Cl)cccc3Cl)no2)c1
pIC50: < 4.70
--
compound: CC(C)(C)OC(=O)c1ccc(CN(C(=O)C(Cl)Cl)c2ccnc(-c3cc(-c4c(Cl)cccc4Cl)no3)c2)cc1
pIC50: 4.70 to 6.00
--
compound: CC(C)(C)OP(=O)(Cc1ccc(CCCN(C(=O)C(Cl)Cl)c2ccnc(-c3cc(-c4c(Cl)cccc4Cl)no3)c2)cc1)OC(C)(C)C
pIC50: 4.70 to 6.00
--
compound: CC(C)(C)OC(=O)c1ccc(CCCN(C(=O)C(Cl)Cl)c2ccnc(-c3cc(-c4c(Cl)cccc4Cl)no3)c2)cc1
pIC50: 4.70 to 6.00
--
compound: O=C(c1cccc(-c2cc(-c3c(Cl)cccc3Cl)no2)c1)N(Cc1oc(=O)oc1COC1CC(O)C(O)C(CO)O1)C(=O)C(Cl)Cl (stereo not shown)
pIC50: > 6.00
--
compound: O=C(C(Cl)Cl)N(COCCc1ccccn1)c1ccnc(-c2cc(-c3c(Cl)cccc3Cl)no2)c1
pIC50: < 4.70
--
compound: O=C(C(Cl)Cl)N(CCCc1ccc(N2CCNCC2)cc1)c1ccnc(-c2cc(-c3c(Cl)cccc3Cl)no2)c1
pIC50: 4.70 to 6.00
